Origin of the recorded values: the supplement of paper PMC10567573

B1: GFOD1 (parent)
chain: EEAEELAKEMSVPFYTSRIDEVLL

variants of: B1; assay: protein stability index of a GFP-peptide fusion (GPS, HEK-293T) (PSI 1-6); higher = more stable; conditions: c terminus: a fixed tail appended;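 further: lentivirally expressed fusions sorted by FACS into six bins by GFP to DsRed ratio, PSI derived from sequencing read proportions per bin multiplied by bin number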
Note that class boundaries on protein stability index are bin A: < 3; bin B: ≥ 3 and < 4; bin C: ≥ 4

entry_sequence="EEAEELAKEMSVIFYTSRIDEVLL [P13I]" assigned_class="bin A"
entry_sequence="EEAEELAKEMSVPFYTSRIDEVLP [L24P]" assigned_class="bin C"
entry_sequence="EEAEELAKEMSVPQYTSRIDEVLL [F14Q]" assigned_class="bin C"
entry_sequence="EEAEELAKEMSVPFYTTRIDEVLL [S17T]" assigned_class="bin B"
entry_sequence="EEAEELAKEMSVPFYTSRRDEVLL [I19R]" assigned_class="bin C"

Data request: // return the class label for EEAEECAKEMSVPFYTSRIDEVLL [L6C]
Data returned: bin C

Data request: Hi, small favor: classify EEAEELAKEMSVPFYTVRIDEVLL [S17V] by its protein stability index when you get a moment.
Data returned: bin B

Data request: Band for the recorded protein stability index of EEAEELAKEMYVPFYTSRIDEVLL [S11Y] ?
Data returned: bin A

Data request: Form field 'band' for EEAEELAKEMSVPFYTSRIDERLL [V22R]
Data returned: bin C

Data request: Into which bin does this variant go? ESAEELAKEMSVPFYTSRIDEVLL [E2S]
Data returned: bin B

Data request: Band for EEAEELAKEMSVPFYNSRIDEVLL [T16N] ?
Data returned: bin C

Data request: Band for the recorded protein stability index of EEAEELAKEMSVPFYTSRIDEVLD [L24D] ?
Data returned: bin C

Data request: Each variant maps to one class by protein stability index. Which class for EEAEELAKEMSVPFYTSRIDEVRL [L23R] ?
Data returned: bin C

Data request: Which protein stability index category applies to EEAEELAKEMSVPFYTSTIDEVLL [R18T] here?
Data returned: bin C

Data request: Which band does EEAEELAKEMLVPFYTSRIDEVLL [S11L] fall in?
Data returned: bin C

Data request: Into which category would you place EEAEELAKEMSVPFYTSRIDCVLL [E21C] ?
Data returned: bin A

Data request: Band for the recorded protein stability index of EEAEELAKEMSVPFYTSRKDEVLL [I19K] ?
Data returned: bin C

Data request: Determine which band this variant sits in: EEAEEEAKEMSVPFYTSRIDEVLL [L6E]
Data returned: bin C

Data request: Which class holds EEAEELAKEMSVPFYTSRIDEMLL [V22M] ?
Data returned: bin C

Data request: Which protein stability index category applies to EEAEELAKWMSVPFYTSRIDEVLL [E9W] here?
Data returned: bin A

Data request: Band for the recorded protein stability index of EEAEELAKEMSDPFYTSRIDEVLL [V12D] ?
Data returned: bin B

Data request: Determine which band this variant sits in: EEAEELAKEMSVPFWTSRIDEVLL [Y15W]
Data returned: bin B

Data request: Hey, which category is EEAEETAKEMSVPFYTSRIDEVLL [L6T] in, do you know?
Data returned: bin C
